Parameter binding signal: see the listing below.
Molecular target: OsWOX13 (Oryza sativa, UniProt Q5QMM3 1-267)
Sequence: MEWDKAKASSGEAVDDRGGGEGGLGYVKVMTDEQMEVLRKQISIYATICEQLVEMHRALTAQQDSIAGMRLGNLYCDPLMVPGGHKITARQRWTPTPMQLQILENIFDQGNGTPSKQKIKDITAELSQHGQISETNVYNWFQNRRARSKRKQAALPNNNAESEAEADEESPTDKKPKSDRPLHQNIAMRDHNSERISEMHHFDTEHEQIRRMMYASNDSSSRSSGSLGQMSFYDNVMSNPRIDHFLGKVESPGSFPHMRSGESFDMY
Assay: protein-binding microarray (RPBM); PBS, 2% BSA, 51.3 ng/ul salmon testes DNA, 50 uM zinc acetate, 200 nM TF, 25 C, 1 h; high values mean tight binding
Details: protein: recombinant; tags: N-terminal polyhistidine and DsRed monomer fusion (pET32a); label: CyDye5-dUTP incorporated in the synthesized complementary strand; 3' TTTTT single-stranded linker to array surface; dsDNA, one strand shown
Over roughly 35,000 sequences, “fluorescence intensity (a.u.)” has its median near 10,000; the highest 2% begin near 52,000. The full list was thinned out, with the highest values kept by preference.

// worked examples, binding signal included
TTATAATTAGTATTTTCATTGTTGTTAGATGATAAAACATCGGAGTCACCTAGTGCAG; 17500 fluorescence intensity (a.u.)
CATCTTTGACCGGTTAAATTAGATCCTGTTCTAGATGAGGCGGAGTCACCTAGTGCAG; 3480 fluorescence intensity (a.u.)
GTGATTTTGTTAAACTTAGGCTGCTTGTTTCATCAATTGCCGGAGTCACCTAGTGCAG; 3740 fluorescence intensity (a.u.)
TTGAGATGATTTACTATTAATTTAGTCTATTGTTGAGATGCGGAGTCACCTAGTGCAG; 35700 fluorescence intensity (a.u.)

// switching to the query sequence
What does the record list as binding signal for TATTAAATTGGCTATAGGTGATTTGGAGCTAATAGTTAGCCGGAGTCACCTAGTGCAG ? 24000 fluorescence intensity (a.u.)
